Source of measurements: paper PMC2756588

Test Target: T1, Pex13, P80667
T1 sequence (P80667 295-386, looked up): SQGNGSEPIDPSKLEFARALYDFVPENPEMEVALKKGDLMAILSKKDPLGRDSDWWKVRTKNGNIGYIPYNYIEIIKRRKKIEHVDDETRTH
Protocol Notes: SPOT array
Measurement Conditions: median of control spots 1341
Quantity Measured: SPOT intensity
Respond using a number only.

Below, each entry is followed by its recorded SPOT intensity result.
Binder	SPOT intensity
ANNQGPPNLPARDKS	229
SNRRPVPRRPSQPLN	129
QHQQRQPKRPKRYSL	6
FYHRPAPKPPVTKKV	143
NAGIRPKFILALNDE	10

Field request: SPOT intensity | item: `VNIPSPSSSPPPIPK`
0

Look at this binder and give its reported SPOT intensity. `EAEEAAPQLPSRSSA`
6
